Tested on: OVCAR-4 ovarian
Assay: NCI-60 one-dose screen, 48 h
Settings: 10 µM unless noted
Protocol: Growth inhibition of the OVCAR-4 human tumor cell line is measured as a screen for anti-cancer activity. Cells are grown in 96 well plates and exposed to the test compound for 48 hours. Compounds are tested at a single concentration, which is 10^-5 M for most compounds. The reported endpoint is percent growth (GI% or GIPRCNT), where numbers from 0 - 100% represent growth inhibition, and numbers from -100% - 0 represent cell death. For example, a value of 40 represents 60% growth inhibition. […]
This is part of a sample that, as a whole, favours compounds with a hit. Of some 83,000 tested, about 20% had one in any assay. The source made the active and inactive calls. How the source made its calls: active means growth percent below 10; inactive means the rest.
Output constraint: value belongs to active, inactive

Examples from the recorded data:
[
  {
    "MOLECULE": "CCn1cc(C(=O)O)c(=O)c2cc(F)c(N3CCN(S(=O)(=O)c4ccc(Cl)cc4Cl)CC3)cc21",
    "STUDY_SYSTEM": "OVCAR-4 ovarian",
    "LABEL_CLASS": "inactive"
  },
  {
    "MOLECULE": "COc1cccc(/C=C2\\SC(N3CCN(c4ccccn4)CC3)=NC2=O)c1",
    "STUDY_SYSTEM": "OVCAR-4 ovarian",
    "LABEL_CLASS": "inactive"
  }
]

Recorded call for COc1cc(C2C=C(C)N=C3SC=C(C)N32)cc(OC)c1OC (configuration not stated) ?
inactive

Same for "O=C(O)C(=Cc1c2ccccc2cc2ccccc12)C(=O)O"
inactive

Same for "Oc1ccc(Cl)cc1-c1cc(-c2ccc(Cl)cc2)n[nH]1"
inactive

Same for "Cc1ccc2c(c1)C(=O)C(c1c(-c3[nH]c(=O)c4ccc(C)cc4c3O)c(O)c3ccccc3c1O)=NC2=O"
inactive

Same for "CCN1C(=O)N[C@H]2[C@@H]3NC(=O)c4ccc(Cl)n4[C@@H]3C[C@]21O"
active

Same for COc1ccc2c(c1)C(C)Cc1c(N(C)C)ncnc1N2C (configuration not stated)
inactive

Same for "CNC(C)=O"
inactive

Same for "O=c1[nH]c2ccccc2cc1-c1nnc(Cc2ccccc2)o1"
inactive

---

system: SN12C renal; experiment: NCI-60 one-dose screen, 48 h (100 = growth as untreated, 0 = no growth, -100 = all killed); conditions: 10 µM unless noted
This is part of a sample that, as a whole, favours compounds with a hit. Of some 83,000 tested, about 20% had one in any assay.
Hi! Just check whether growth is below 20%. Below gives yes (1), equal or above gives no (0).

[
  {
    "COMPOUND": "CCOC(=O)[C@H](CSSc1ncnc2cc[nH]c12)NC(=O)[C@@H](C)c1ccc2cc(OC)ccc2c1",
    "STUDY_SYSTEM": "SN12C renal",
    "LABEL_CLASS": "no (0)"
  }
]

Regarding "NC(=S)NN=C1CCCCC1" , kindly confirm whether its growth is beneath 20%.
no (0)

Same for "Clc1nc(-c2cccnc2)nc2sc3c(c12)CCCCCC3"
no (0)

Same for "O=C(CN1CCN(c2cc3c(cc2F)c(=O)c(C(=O)O)cn3C2CC2)CC1)Nc1ccc(C(=O)/C=C/c2ccccc2)cc1"
yes (1)

---

The following compounds are shown together with reported growth values.
Tested on: SK-OV-3 ovarian
Experiment: NCI-60 one-dose screen, 48 h (100 = growth as untreated, 0 = no growth, -100 = all killed)
Details: 10 µM unless noted
Method: Growth inhibition of the SK-OV-3 human tumor cell line is measured as a screen for anti-cancer activity. Cells are grown in 96 well plates and exposed to the test compound for 48 hours. Compounds are tested at a single concentration, which is 10^-5 M for most compounds. The reported endpoint is percent growth (GI% or GIPRCNT), where numbers from 0 - 100% represent growth inhibition, and numbers from -100% - 0 represent cell death. For example, a value of 40 represents 60% growth inhibition. […]
About 83,000 compounds went through this panel and 20% of them were active in at least one assay; those are over-represented in the sample as a whole.
// return numeric value only (unit: %, not printed)

Reference set (8 entries):
[
  {
    "COMPOUND": "CC(C)CCC[C@@H](C)[C@H]1CC[C@H]2[C@@H]3CC[C@H]4C/C(=N/O)CC[C@]4(C)[C@H]3CC[C@]12C",
    "growth / %": 104
  },
  {
    "COMPOUND": "C/C(=N\\NC(=O)CC#N)c1cc2cc(Cl)ccc2o1",
    "growth / %": 98.8
  },
  {
    "COMPOUND": "COC(=O)CC/C(C)=N\\Nc1ccc([N+](=O)[O-])cc1",
    "growth / %": 62.5
  },
  {
    "COMPOUND": "O=C(Nc1ccc(F)cc1)c1cc([N+](=O)[O-])ccc1O",
    "growth / %": 84
  },
  {
    "COMPOUND": "Cc1ccc(S(=O)(=O)N2CCC(C(=O)Nc3ccc(F)cc3F)CC2)cc1",
    "growth / %": 92.3
  },
  {
    "COMPOUND": "COc1cc(OC)c(C(=O)/C=C/c2ccc(C(F)(F)F)cc2)c(OC)c1",
    "growth / %": 75.4
  },
  {
    "COMPOUND": "O=C(O)c1cccc([N+](=O)[O-])c1/C=C/c1ccccc1",
    "growth / %": 94.6
  },
  {
    "COMPOUND": "C=C1C(=O)O[C@H]2[C@H]1CC/C(Cn1cc(-c3ccccc3C(F)(F)F)nn1)=C\\CC[C@@]1(C)O[C@@H]21",
    "growth / %": 79.1
  }
]

Dear colleague, I am looking for the recorded growth of the following compound: "CC(C)CCN(CCCNc1c2c(nc3ccccc13)CCCC2)CCC(C)C"
94.3

Same for CC(C(=O)n1cc(-c2ccccc2)c(-c2ccccc2)c1)c1ccccc1 (stereo not given)
105
